Reference source for all entries: ChEMBL document CHEMBL3431459

- Method description: SUPPLEMENTARY: Lyophilisation Solubility Assay (LYSA)
- Type: physicochemical
- Assay setup: read-out: Kinetic_solubility
Cut-off 40 µg/mL on solubility kinetic, inclusive. At or above means true (1); below means false (0).

- Compound: "CN1CCN(c2cc3c(cc2Cl)CN(C(=O)[C@H]2CCCCN2C(=O)COc2ccccc2)C3)CC1"
  Class: "true (1)"
- Compound: "NC(=O)c1cccc(-c2n[nH]c([C@H]3CCCCN3C(=O)COc3ccccc3)n2)c1"
  Class: "true (1)"
- Compound: "COc1ccc(Cl)cc1S(=O)(=O)N1CCS(=O)(=O)c2ccc(C(=O)Nc3ccc(C(=O)O)c(F)c3)cc21"
  Class: "false (0)"
- Compound: "O=C(O)COc1cccc(-c2noc([C@H]3CCCCN3C(=O)COc3ccccc3)n2)c1"
  Class: "true (1)"
- Compound: "O=C(COc1ccncc1)N1CCCC[C@@H]1c1nnc(-c2cccc(C(F)(F)F)c2)[nH]1"
  Class: "true (1)"
- Compound: "Cc1cc(C(=O)Nc2ccc(C(=O)O)cc2)cc(S(=O)(=O)Nc2cccc(C(F)(F)F)c2)c1C"
  Class: "true (1)"
- Compound: "NS(=O)(=O)c1ccc(C#C[C@H]2CCCCN2C(=O)COc2ccccc2)cc1"
  Class: "false (0)"
- Compound: "COc1ccc(Cl)cc1CN1C(=O)OCc2ccc(C(=O)Nc3ccc(CC(=O)O)cc3)cc21"
  Class: "true (1)"
- Compound: "O=C1Cc2cc(-c3noc([C@H]4CNCCN4C(=O)COc4ccccc4)n3)ccc2N1"
  Class: "true (1)"
- Compound: "COc1ccc(Cl)cc1S(=O)(=O)N1COc2c(F)cc(C(=O)Nc3ccc(C(=O)O)cc3)cc21"
  Class: "false (0)"
- Compound: "CC(=O)Nc1cccc(C#C[C@H]2CCCCN2C(=O)COc2ccccc2)c1"
  Class: "false (0)"
- Compound: "COc1ccc(Cl)cc1S(=O)(=O)c1cn(C)c2ccc(C(=O)Nc3ccc(C(=O)O)cc3)cc12"
  Class: "false (0)"
- Compound: "O=C(COc1ccccc1)N1CCCC[C@@H]1c1nc(-c2cccc(-c3nnco3)c2)n[nH]1"
  Class: "false (0)"
- Compound: "Cc1cc(-c2nc([C@H]3CCCCN3C(=O)COc3ccccc3)no2)[nH]n1"
  Class: "true (1)"
- Compound: "O=C(O)Cc1ccc(NC(=O)c2ccc3ccn(S(=O)(=O)c4cccc(Cl)c4)c3c2)cc1"
  Class: "false (0)"
- Compound: "O=C(O)c1ccc(C(=O)Nc2nn(Cc3ccc(OC(F)F)cc3)c3ccc(F)cc23)cc1"
  Class: "true (1)"
- Compound: "COc1ccc(C)cc1S(=O)(=O)N1CCc2ccc(C(=O)Nc3ccc(CC(=O)O)cc3)cc21"
  Class: "true (1)"
- Compound: "O=C(COc1ccccc1)N1CCCC[C@@H]1c1noc(-c2cc(Cl)nnc2O)n1"
  Class: "true (1)"
- Compound: "CCOC(=O)c1cncc(-c2noc([C@H]3CCCCN3C(=O)COc3ccccc3)n2)c1"
  Class: "false (0)"
- Compound: "COc1ccc(Cl)cc1Cn1cc(C(=O)O)c2ccc(C(=O)Nc3ccccc3)cc21"
  Class: "false (0)"
- Compound: "O=C(Nc1ccc(C(=O)O)c(F)c1)c1ccc2c(c1)N(S(=O)(=O)c1cc(Cl)cc(Cl)c1)CCC2"
  Class: "false (0)"
- Compound: "O=C(O)c1ccc(NC(=O)c2ccc3c(c2)N(S(=O)(=O)c2cccc(Cl)c2)CC[S+]3[O-])cc1 (stereo unspecified)"
  Class: "false (0)"
- Compound: "COc1cccc2c1CCN(C(=O)[C@H]1CCCCN1C(=O)COc1ccccc1)C2"
  Class: "false (0)"
- Compound: "Cn1cc(Sc2cccc(Cl)c2)c2cc(C(=O)Nc3ccc(C(=O)O)cc3)ccc21"
  Class: "false (0)"
- Compound: "CC(=O)NCc1cccc(-c2nc([C@H]3CCCCN3C(=O)COc3ccccc3)no2)c1"
  Class: "true (1)"
- Compound: "NC(=O)c1n[nH]c2cc(-c3noc([C@H]4CCCCN4C(=O)COc4ccccc4)n3)ccc12"
  Class: "false (0)"
- Compound: "O=C(COc1ccccc1)N1CCCC[C@@H]1c1noc(-c2ccc3[nH]c(=O)c(=O)[nH]c3c2)n1"
  Class: "true (1)"
- Compound: "COc1ccc(Cl)cc1S(=O)(=O)N1CCc2c(C)cc(C(=O)Nc3ccc(C(=O)O)cc3)cc21"
  Class: "false (0)"
- Compound: "CC(=O)Nc1ccc(-n2nnc([C@H]3CCCCN3C(=O)COc3ccccc3)n2)cc1"
  Class: "true (1)"
- Compound: "CN1CCN(C(=O)COc2ccccc2)[C@@H](c2nc(-c3ccc4c(c3)CC(=O)N4)no2)C1"
  Class: "true (1)"
- Compound: "Cc1cc(C)cc(S(=O)(=O)c2nn(CCC(=O)O)c3ccc(C(=O)Nc4ccccc4)cc23)c1"
  Class: "false (0)"
- Compound: "COc1ccc(Cl)cc1S(=O)(=O)c1nn(CC(=O)O)c2ccc(C(=O)Nc3ccccc3)cc12"
  Class: "true (1)"
- Compound: "COc1ccc(C)cc1S(=O)(=O)n1ccc2ccc(C(=O)Nc3ccc(CC(=O)O)cc3)cc21"
  Class: "true (1)"
- Compound: "CCCN(c1cc(C(=O)Nc2ncc(CC(=O)O)s2)cc2c1OCO2)S(=O)(=O)c1cc(Cl)ccc1OC"
  Class: "true (1)"
- Compound: "NS(=O)(=O)c1cccc(-c2noc([C@H]3CCCCN3C(=O)COc3ccccc3)n2)c1"
  Class: "false (0)"
- Compound: "O=C(COc1ccccc1)N1CCCC[C@@H]1c1noc(-c2ccc3[nH]nnc3c2)n1"
  Class: "true (1)"

====

- Method description: SUPPLEMENTARY: Lyophilisation Solubility Assay (LYSA)
- Type: physicochemical
- Assay setup: read-out: Kinetic_solubility
Assay metric: log10(solubility kinetic) (log10 of the value in µg/mL)

- Compound: "COc1ccc(Cl)cc1S(=O)(=O)N1CCOc2ncc(C(=O)Nc3ccc(C(=O)O)cc3)cc21"
  log10(solubility kinetic): 1.67
- Compound: "COc1ccc(Cl)cc1S(=O)(=O)N1CCOc2c1cc(C(=O)Nc1ccc(C(=O)O)cc1)cc2C(F)(F)F"
  log10(solubility kinetic): 2.01
- Compound: "COc1ccc(Cl)cc1S(=O)(=O)N1CCc2ccc(C(=O)Nc3ccc(C(=O)O)cc3)cc21"
  log10(solubility kinetic): 0.70
- Compound: "COc1ccc(Cl)cc1S(=O)(=O)N1CCOc2ncc(C(=O)Nc3ccccc3)cc21"
  log10(solubility kinetic): 0.60
- Compound: "Cn1cc(S(=O)(=O)c2cccc(Cl)c2)c2cc(C(=O)Nc3nc(CC(=O)O)cs3)ccc21"
  log10(solubility kinetic): 1.41
- Compound: "Cc1cc(C)cc(S(=O)(=O)n2ccc3ccc(C(=O)Nc4ccc(CC(=O)O)cc4)cc32)c1"
  log10(solubility kinetic): 0.78
- Compound: "COc1ccc(Cl)cc1S(=O)(=O)N1CCOc2ccc(C(=O)Nc3ccc(CCC(=O)O)cc3)cc21"
  log10(solubility kinetic): 0.60
- Compound: "COc1ccc(Cl)cc1S(=O)(=O)N1CCOc2c(Cl)cc(C(=O)Nc3ccc(C(=O)O)cc3)cc21"
  log10(solubility kinetic): 0.00
- Compound: "COc1ccc(Cl)cc1S(=O)(=O)N1CCOc2c(F)cc(C(=O)Nc3nc(CC(=O)O)cs3)cc21"
  log10(solubility kinetic): 1.00
- Compound: "Cc1cc(-c2nc([C@H]3CCCCN3C(=O)COc3ccccc3)no2)on1"
  log10(solubility kinetic): 1.61
- Compound: "CCn1c(C)nc(Cl)c1-c1noc([C@H]2CCCCN2C(=O)COc2ccccc2)n1"
  log10(solubility kinetic): 1.38
- Compound: "COc1ccc(Cl)cc1S(=O)(=O)N1CCc2c(C)cc(C(=O)Nc3ccc(CC(=O)O)cc3)cc21"
  log10(solubility kinetic): 1.57
- Compound: "COc1ccc(-c2noc(C3C[S+]([O-])CCN3C(=O)COc3ccccc3)n2)cc1 (stereo unspecified)"
  log10(solubility kinetic): 2.12
- Compound: "O=C1CNc2ccc(-c3nc([C@H]4CCCCN4C(=O)COc4ccccc4)no3)cc2N1"
  log10(solubility kinetic): 1.36
- Compound: "O=C(COc1ccccc1)N1CCCC[C@@H]1c1noc(-c2ccc(C(F)(F)F)nc2)n1"
  log10(solubility kinetic): 0.90
- Compound: "O=C1CCC(=O)N1c1cccc(-c2n[nH]c([C@H]3CCCCN3C(=O)COc3ccccc3)n2)c1"
  log10(solubility kinetic): 2.24
- Compound: "Cn1cnc(Br)c1-c1noc([C@H]2CCCCN2C(=O)COc2ccccc2)n1"
  log10(solubility kinetic): 1.92
- Compound: "O=C(COc1ccccc1)N1CCCC[C@@H]1c1noc(-c2ccc(-n3cncn3)cc2)n1"
  log10(solubility kinetic): 1.04
- Compound: "CCN(CC)C(=O)c1ccc(-c2noc([C@H]3CCCCN3C(=O)COc3ccccc3)n2)cc1"
  log10(solubility kinetic): 1.49
- Compound: "COc1ccc(Cl)cc1S(=O)(=O)c1nn(C)c2ccc(C(=O)Nc3ccc(C(=O)O)cc3)cc12"
  log10(solubility kinetic): 0.90
- Compound: "Cc1cc(C)cc(S(=O)(=O)N2CCc3ccc(C(=O)Nc4ccc(CC(=O)O)cc4)cc32)c1"
  log10(solubility kinetic): 0.70
- Compound: "COc1ccc(Cl)cc1S(=O)(=O)c1c[nH]c2ccc(C(=O)Nc3ccc(C(=O)O)cc3)cc12"
  log10(solubility kinetic): 1.36
- Compound: "O=C([C@H]1CCCCN1C(=O)COc1ccccc1)N1CCc2ccccc2C1"
  log10(solubility kinetic): 1.34
- Compound: "Nc1cc(-c2n[nH]c([C@H]3CCCCN3C(=O)COc3ccccc3)n2)ccn1"
  log10(solubility kinetic): 2.45
- Compound: "O=C1Nc2ccc(-c3noc([C@H]4CCCCN4C(=O)COc4ccccc4)n3)cc2CO1"
  log10(solubility kinetic): 0.90
- Compound: "O=C1CN(c2cccc(-c3n[nH]c([C@H]4CCCCN4C(=O)COc4ccccc4)n3)c2)C(=O)N1"
  log10(solubility kinetic): 1.73
- Compound: "CCn1cc(Sc2cc(Cl)ccc2OC)c2cc(C(=O)Nc3ccc(C(=O)O)cc3)ccc21"
  log10(solubility kinetic): 0.60
- Compound: "O=C([C@H]1CCCCN1C(=O)COc1ccccc1)N1Cc2cc(F)c(N3CCOCC3)cc2C1"
  log10(solubility kinetic): 1.85
- Compound: "COc1ccc(Cl)cc1S(=O)(=O)c1cn(CCC(=O)O)c2ccc(C(=O)Nc3ccccc3)cc12"
  log10(solubility kinetic): 2.40
- Compound: "COc1ccc(Cl)cc1S(=O)(=O)N1COc2ccc(C(=O)Nc3ccc(C(=O)O)cc3)cc21"
  log10(solubility kinetic): 1.11
- Compound: "COc1ccc(Cl)cc1S(=O)(=O)N1CCCCc2ccc(C(=O)Nc3ccc(C(=O)O)c(F)c3)cc21"
  log10(solubility kinetic): 2.54
